Catalogue of compounds with associated SI = CC50/EC50
test system: HCV (JFH-1 strain) in Huh7.5 cells; experiment: Cell-based HCV replicon assay (RT-qPCR of HCV RNA in infected Huh7.5 cells); set-up: species or system hepatitis C virus; conditions: selectivity index, CC50 (Huh-7.5, XTT) / EC50 (HCV replicon)

compound	SI = CC50/EC50
COc1cccc(C=NNC(=O)c2c[nH]c3ccc(OCc4ccccc4)cc3c2=O)c1	>1.8
O=C(NN=Cc1ccccc1F)c1c[nH]c2ccc(OCc3ccccc3)cc2c1=O	> 2
CC(C)OC(=O)[C@H](C)N[P@](=O)(OC[C@H]1O[C@@H](n2ccc(=O)[nH]c2=O)[C@](C)(F)[C@@H]1O)Oc1ccccc1 [Sofosbuvir, sofosbuvir, reference compound]	> 100
COc1ccc(C=NNC(=O)c2c[nH]c3ccc(OCc4ccccc4)cc3c2=O)cc1	> 2
